- System: Human immunodeficiency virus 1
- procedureSummary: Antiviral activity against HIV-1 NL4-3 infected in human MT4 cells assessed as reduction in p24 production treated at 48 hrs post-infection and measured on day 4 post-viral infection by ELISA
- Format: functional, organism-based
- conditionsUsed: Human immunodeficiency virus 1, NL4-3, MT4
Measured IC50 accompanies every entry in the list below.

Reference set, count: 4
compound	reportedValue
C/C=C/C(=O)OCC1=C[C@H]2C3C(C)(C)[C@]3(OC(=O)/C=C/C)[C@H](O)[C@@H](C)[C@]2(O)[C@@H]2C=C(C)C(=O)[C@@]2(O)C1 (single isomer, unassigned)	> 10 µM
C/C=C/C(=O)O[C@]12C([C@@H]3C=C(CO)C[C@]4(O)C(=O)C(C)=C[C@H]4[C@@]3(O)[C@H](C)[C@H]1O)C2(C)C (single isomer, unassigned)	> 10 µM
C/C=C(/C)C(=O)O[C@]12C([C@@H]3C=C(CO)C[C@]4(O)C(=O)C(C)=C[C@H]4[C@@]3(O)[C@H](C)[C@H]1O)C2(C)C (single isomer, unassigned)	> 10 µM
CCCCCCCCCCCCCCCCCCCC(=O)O[C@]12C([C@@H]3C=C(CO)C[C@]4(O)C(=O)C(C)=C[C@H]4[C@@]3(O)[C@H](C)[C@H]1O)C2(C)C (single isomer, unassigned)	0.0135 µM

Next compound, please.
Quick note, IC50 for CCCCCCCCCCCCCCCCCCCC(=O)O[C@@H]1[C@@H](C)[C@@]2(O)[C@@H](C=C(CO)C[C@]3(O)C(=O)C(C)=C[C@@H]23)[C@@H]2C(C)(C)[C@]12OC(=O)CCCCCCCCCCCCCCCCCCC landed at > 10 µM

The reported measurements were obtained from ChEMBL document CHEMBL4808236.
